System: Clostridioides difficile
Assay: Antimicrobial activity against Clostridium difficile harboring ribotype 001 by CLSI agar dilution method
Assay type: functional
Kindly supply the reported MIC50 values for the records listed here.
Numbers only, in µg/mL.

Example results:
[
  {
    "compound": "Cc1ncc([N+](=O)[O-])n1CCO",
    "outcome_measure": "MIC50",
    "recorded_measurement": 0.5
  },
  {
    "compound": "CN[C@H](CC(C)C)C(=O)N[C@H]1C(=O)N[C@@H](CC(N)=O)C(=O)N[C@H]2C(=O)N[C@H]3C(=O)N[C@H](C(=O)N[C@H](C(=O)O)c4cc(O)cc(O)c4-c4cc3ccc4O)[C@H](O)c3ccc(c(Cl)c3)Oc3cc2cc(c3O[C@@H]2O[C@H](CO)[C@@H](O)[C@H](O)[C@H]2O[C@H]2C[C@](C)(N)[C@H](O)[C@H](C)O2)Oc2ccc(cc2Cl)[C@H]1O",
    "outcome_measure": "MIC50",
    "recorded_measurement": 1
  }
]

Give MIC50 for each listed item.
1. COc1c(N2CCNC(C)C2)c(F)cc2c(=O)c(C(=O)O)cn(C3CC3)c12 (stereo not given)
2. CCS(=O)(=O)CCn1c([N+](=O)[O-])cnc1C

Output:
[32, 0.5]
